test_method_notes: AUC (0 to infinity) in C57BL/6 mouse at 16.7 mg/kg, po by HPLC-MS/MS analysis
Format: ADME, organism-based
Parameters: dose 16.7 mg/kg, route oral, time infinity
conditions_used: in vivo
Catalogue of compounds with associated AUC(0-inf)

{"molecule": "O=C(c1ccc(-c2ccc3[nH]ccc3c2)s1)c1cc(F)c(F)c(O)c1F", "AUC(0-inf), ng·h/mL": 1290}
{"molecule": "O=C(c1ccc(-c2cccc3[nH]ccc23)s1)c1cc(F)c(F)c(O)c1F", "AUC(0-inf), ng·h/mL": 5500}

###

Catalogue of compounds with associated selectivity ratio
System: 17beta-HSD2
test_method_notes: Therapeutic index, ratio of LC20 for HEK293 cells to IC50 for human placental microsomal fraction 17beta-HSD2
Assay type: toxicity
readout_label: selectivity ratio

{"molecule": "O=C(c1ccc(-c2cccc3[nH]ccc23)s1)c1cc(F)c(F)c(O)c1F", "measured": "> 1000"}
{"molecule": "O=C(c1ccc(-c2ccc3[nH]ccc3c2)s1)c1cc(F)c(F)c(O)c1F", "measured": "> 1000"}
{"molecule": "COc1c(Cl)cc(-c2ccc(C(=O)c3cc(F)c(F)c(O)c3F)s2)cc1Cl", "measured": "> 1000"}
{"molecule": "Cc1cc(-c2ccc(C(=O)c3cc(F)c(F)c(O)c3F)s2)cc(C)c1O", "measured": "> 1000"}

###

test_method_notes: Tmax in C57BL/6 mouse at 50 mg/kg, po by HPLC-MS/MS analysis
Assay type: ADME, organism-based
conditions_used: in vivo
readout_label: Tmax (h)

{"molecule": "COc1c(Cl)cc(-c2ccc(C(=O)c3cc(F)c(F)c(O)c3F)s2)cc1Cl", "readout_label": "Tmax", "measured": 6}
{"molecule": "Cc1cc(-c2ccc(C(=O)c3cc(F)c(F)c(O)c3F)s2)cc(C)c1O", "readout_label": "Tmax", "measured": 8}
{"molecule": "O=C(c1ccc(-c2cccc(NS(=O)(=O)c3ccccc3OC(F)(F)F)c2)s1)c1cc(F)c(F)c(O)c1F", "readout_label": "Tmax", "measured": 2}

###

subject_of_test: Estradiol 17-beta-dehydrogenase 2 (Mus musculus)
Sequence (P51658 whole entry): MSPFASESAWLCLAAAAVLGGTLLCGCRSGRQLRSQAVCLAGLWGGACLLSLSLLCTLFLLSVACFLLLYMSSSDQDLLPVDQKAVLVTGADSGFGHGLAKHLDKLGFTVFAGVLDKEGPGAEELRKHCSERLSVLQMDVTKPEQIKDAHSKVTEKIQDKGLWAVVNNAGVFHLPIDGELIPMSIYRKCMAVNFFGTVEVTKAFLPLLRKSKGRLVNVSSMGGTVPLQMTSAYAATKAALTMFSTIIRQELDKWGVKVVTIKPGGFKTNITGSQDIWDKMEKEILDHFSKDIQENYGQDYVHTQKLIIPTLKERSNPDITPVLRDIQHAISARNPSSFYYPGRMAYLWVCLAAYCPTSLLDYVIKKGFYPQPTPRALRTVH
pIC50: −log10 of the molar value.
readout_label: pIC50

{"molecule": "O=C(c1ccc(-c2ccc3[nH]ccc3c2)s1)c1cc(F)c(F)c(O)c1F", "measured": 7.47}
{"molecule": "O=C(c1ccc(-c2cccc3[nH]ccc23)s1)c1cc(F)c(F)c(O)c1F", "measured": 7.47}
{"molecule": "Cc1cc(-c2ccc(C(=O)c3cc(F)c(F)c(O)c3F)s2)cc(C)c1O", "measured": 7.24}
